assay: Selectivity index, ratio of CC50 for human P3HR1 cells to EC50 for EBV infected in human P3HR1 cells
Set-up: species or system P3HR-1
Is Ratio CC50/EC50 at least 3? Then satisfied. If not, not satisfied.

{"molecule": "COc1ccc([C@H]2O[C@@H](c3ccc(OC)c(OC)c3)[C@@H](C)[C@H]2C)cc1OC", "assigned.class": "not satisfied"}
{"molecule": "C=CCc1cc(OC)c(O[C@H](C)[C@H](O)c2cc(OC)c3c(c2)OCO3)c(OC)c1", "assigned.class": "satisfied"}
{"molecule": "COc1cc([C@H]2O[C@@H](c3cc(OC)c(OC)c(OC)c3)[C@H](C)[C@@H]2C)cc(O)c1OC", "assigned.class": "not satisfied"}
{"molecule": "COc1cc([C@H]2O[C@@H](c3cc(OC)c4c(c3)OCO4)[C@H](C)[C@@H]2C)cc(OC)c1OC", "assigned.class": "not satisfied"}
{"molecule": "COc1ccc([C@H]2O[C@@H](c3cc(OC)c(O)c(OC)c3)[C@H](C)[C@@H]2C)cc1OC", "assigned.class": "satisfied"}

Kindly determine if Ratio CC50/EC50 recorded for "C/C=C/c1ccc(O[C@H](C)[C@H](O)c2ccc(O)c(OC)c2)c(OC)c1" is above or exactly 3. not satisfied

Kindly determine if Ratio CC50/EC50 recorded for "COc1cc([C@H]2O[C@@H](c3cc(OC)c(OC)c(OC)c3)[C@H](C)[C@@H]2C)cc(OC)c1O" is above or exactly 3. not satisfied

====

assay: Cytotoxicity against human P3HR1 cells assessed as cell viability after 2 days by trypan blue staining-based light microscopy
Design: species or system P3HR-1
Class (required): determined from CC50 at 48 h; valid ranges are low range = under 60 µM, mid range = from 60 µM up to 70 µM, high range = 70 µM and over

Bin? "COc1cc([C@H]2O[C@@H](c3ccc(OC)c(OC)c3)[C@@H](C)[C@H]2C)ccc1O" mid range

====

System: Human gammaherpesvirus 4
assay: Antiviral activity against EBV infected in human P3HR1 cells assessed as inhibition of lytic viral DNA replication after 48 hrs by RT-PCR analysis
Format: functional, organism-based
applied.conditions: human gammaherpesvirus 4, P3HR-1, 48 h
assay.metric: EC50
Give your result as the value with the unit written after it.

{"molecule": "COc1cc(C(=O)[C@@H](C)Oc2c(OC)cc(/C=C/CO)cc2OC)cc(OC)c1OC", "observed": "80.1 µM"}
{"molecule": "COc1ccc([C@H](O)[C@@H](C)Oc2ccc([C@H]3O[C@H](c4ccc5c(c4)OCO5)[C@H](C)[C@H]3C)cc2OC)cc1OC", "observed": "1.09 µM"}

Now consider the entry below.
Answer with reported EC50 of "COc1cc([C@H]2O[C@@H](c3cc(OC)c(OC)c(OC)c3)[C@H](C)[C@@H]2C)cc(O)c1OC" 16.7 µM

====

assay: Cytotoxicity against human P3HR1 cells assessed as cell viability after 2 days by trypan blue staining-based light microscopy
Design: species or system P3HR-1
Item-by-item account of CC50 at 48 h
Value expressed in µM; do not type the unit.

{"smiles.repr": "COc1ccc([C@@H](O)[C@@H](C)Oc2ccc([C@H]3O[C@H](c4ccc(OC)c(OC)c4)[C@H](C)[C@H]3C)cc2OC)cc1OC", "assay.metric": "CC50 at 48 h", "observed": 110}

Now consider the entry below.
Answer with reported CC50 at 48 h of "C/C=C/c1cc(OC)c(O[C@H](C)[C@H](O)c2cc(OC)c3c(c2)OCO3)c(OC)c1" 90.3

====

Item-by-item account of EC50
Test system: Human gammaherpesvirus 4
assay: Antiviral activity against EBV infected in human P3HR1 cells assessed as inhibition of lytic viral DNA replication after 48 hrs by RT-PCR analysis
Format: functional, organism-based
applied.conditions: human gammaherpesvirus 4, P3HR-1, 48 h
Value expressed in µM; do not type the unit.

{"compound": "COc1cc([C@@H](O)[C@@H](C)Oc2ccc([C@@H]3O[C@H](c4ccc(O)c(OC)c4)[C@H](C)[C@H]3C)cc2OC)ccc1O", "tested.on": "Human gammaherpesvirus 4", "unit.symbol": "µM", "observed": 6.95}
{"compound": "COc1cc([C@@H](O)[C@@H](C)Oc2ccc([C@H]3O[C@H](c4ccc(O[C@H](C)[C@H](O)c5ccc6c(c5)OCO6)c(OC)c4)[C@H](C)[C@H]3C)cc2OC)ccc1O [4-O-DEMETHYLMANASSANTIN B]", "tested.on": "Human gammaherpesvirus 4", "unit.symbol": "µM", "observed": 3.52}
{"compound": "COc1cc([C@H]2O[C@@H](c3cc(OC)c(OC)c(OC)c3)[C@H](C)[C@@H]2C)cc(OC)c1O", "tested.on": "Human gammaherpesvirus 4", "unit.symbol": "µM", "observed": 29.5}
{"compound": "C=CCc1cc(OC)c(O[C@H](COC(C)=O)[C@H](O)c2cc(OC)c(OC)c(OC)c2)c(OC)c1", "tested.on": "Human gammaherpesvirus 4", "unit.symbol": "µM", "observed": 53.3}
{"compound": "C=CCc1cc(OC)c(O[C@H](C)C(=O)c2cc(OC)c(OC)c(OC)c2)c(OC)c1", "tested.on": "Human gammaherpesvirus 4", "unit.symbol": "µM", "observed": 21.9}

Answer with reported EC50 of "COc1ccc([C@H]2O[C@@H](c3cc(OC)c(OC)c(OC)c3)[C@H](C)[C@@H]2C)cc1OC" 67.9

Answer with reported EC50 of "COc1ccc([C@H]2O[C@@H](c3ccc(OC)c(OC)c3)[C@@H](C)[C@H]2C)cc1OC" 49.9

====

System: Human gammaherpesvirus 4
assay: Antiviral activity against EBV infected in human P3HR1 cells assessed as inhibition of lytic viral DNA replication after 48 hrs by RT-PCR analysis
Assay type: functional, organism-based
applied.conditions: human gammaherpesvirus 4, P3HR-1, 48 h
pEC50: −log10 of the molar value.
Is pEC50 at least 5? Then Y. If not, N.

Example results:
{"smiles.repr": "C/C=C/c1cc(OC)c(O[C@H](C)[C@H](O)c2cc(OC)c3c(c2)OCO3)c(OC)c1", "assigned.class": "N"}
{"smiles.repr": "C/C=C/c1ccc(O[C@H](C)[C@H](O)c2ccc(O)c(OC)c2)c(OC)c1", "assigned.class": "N"}
{"smiles.repr": "COc1cc([C@H]2O[C@@H](c3ccc(OC)c(OC)c3)[C@@H](C)[C@H]2C)ccc1O", "assigned.class": "N"}
{"smiles.repr": "C=CCc1cc(OC)c(O[C@H](C)[C@H](OC(C)=O)c2cc(OC)c(OC)c(OC)c2)c(OC)c1", "assigned.class": "N"}
{"smiles.repr": "C/C=C/c1cc(OC)c(O[C@@H](C)[C@@H](O)c2cc(OC)c(OC)c(OC)c2)c(OC)c1", "assigned.class": "N"}

Kindly determine if pEC50 recorded for "COc1ccc([C@@H](O)[C@@H](C)Oc2ccc([C@H]3O[C@H](c4ccc(OC)c(OC)c4)[C@H](C)[C@H]3C)cc2OC)cc1OC" is above or exactly 5. Y

====

System: Human gammaherpesvirus 4
assay: Antiviral activity against EBV infected in human P3HR1 cells assessed as inhibition of lytic viral DNA replication after 48 hrs by RT-PCR analysis
Type: functional, organism-based
applied.conditions: human gammaherpesvirus 4, P3HR-1, 48 h
Item-by-item account of EC50
Value expressed in µM; do not type the unit.

{"molecule": "COc1cc([C@@H](OC(C)=O)[C@@H](C)Oc2c(OC)cc(/C=C/CO)cc2OC)cc(OC)c1OC", "EC50 (µM)": 44.3}
{"molecule": "COc1ccc([C@@H](O)[C@@H](C)Oc2ccc([C@H]3O[C@H](c4ccc(O[C@H](C)[C@H](O)c5ccc6c(c5)OCO6)c(OC)c4)[C@H](C)[C@H]3C)cc2OC)cc1O", "EC50 (µM)": 2.69}
{"molecule": "C/C=C/c1cc(OC)c(O[C@H](C)[C@H](OC(C)=O)c2cc(OC)c(OC)c(OC)c2)c(OC)c1", "EC50 (µM)": 25.4}
{"molecule": "COc1ccc([C@@H](O)[C@@H](C)Oc2ccc(C(=O)[C@H](C)[C@H](C)C(=O)c3ccc(O[C@H](C)[C@H](O)c4ccc5c(c4)OCO5)c(OC)c3)cc2OC)cc1OC", "EC50 (µM)": 16.2}
{"molecule": "COc1ccc([C@@H](O)[C@@H](C)Oc2ccc([C@H]3O[C@@]4(c5ccc(O[C@H](C)[C@H](O)c6ccc(OC)c(OC)c6)c(OC)c5)O[C@@]4(C)[C@H]3C)cc2OC)cc1OC (relative stereo)", "EC50 (µM)": 14.5}

Now consider the entry below.
Write down measured EC50 (Human gammaherpesvirus 4) for this molecule. "COc1ccc([C@H]2O[C@@H](c3cc(OC)c(O)c(OC)c3)[C@H](C)[C@@H]2C)cc1OC" 11.6
